Ref: patent US6984643B2

tested system: CCR-3 receptor (Homo sapiens)
Construct: expressed in transfected cells; host or cells: L1.2 (murine pre-B lymphoma line)
assay procedure: CCR-3 Receptor Binding Assay in vitro (inhibition of 125I eotaxin binding to CCR-3 L1.2 transfectant cells)
run conditions: stated in text for the compound where Z is —C(═O)—; assay not given; read-out: IC50
recorded metric: pIC50
The scale used: pIC50 is minus the common logarithm of the concentration in molar units.

// sample COc1ccc(-c2cnc(SCC(=O)NCC3CCCN(C(=O)CCc4ccc(Cl)cc4)C3)nc2)cc1OC (racemic) , its pIC50 was 5.72

---

tested system: CCR-3 receptor (Homo sapiens, UniProt P51677)
Construct: expressed in transfected cells; host or cells: L1.2 (murine pre-B lymphoma line)
Sequence (P51677 whole entry): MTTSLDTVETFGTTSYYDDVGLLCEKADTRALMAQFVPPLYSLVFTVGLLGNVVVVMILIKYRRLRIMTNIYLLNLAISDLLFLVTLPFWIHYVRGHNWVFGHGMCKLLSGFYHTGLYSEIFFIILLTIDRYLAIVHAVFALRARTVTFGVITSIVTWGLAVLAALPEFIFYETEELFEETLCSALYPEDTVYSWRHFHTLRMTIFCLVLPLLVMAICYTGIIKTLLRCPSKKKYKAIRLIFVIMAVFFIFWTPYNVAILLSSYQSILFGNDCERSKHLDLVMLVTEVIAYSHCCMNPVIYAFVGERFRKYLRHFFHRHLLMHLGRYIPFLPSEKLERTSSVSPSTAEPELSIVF
assay procedure: CCR-3 Receptor Binding Assay in vitro (inhibition of 125I eotaxin binding to CCR-3 L1.2 transfectant cells)
run conditions: concentration reducing 125I-eotaxin binding to CCR-3 L1.2 transfected cells by 50%; read-out: CCR-3 IC50
recorded metric: IC50 (µM)
Field: numeric (µM). Do not append units.

Solved cases (8 shown):
compound: COc1ccc(-c2cnc(SCC(=O)NCC3CCCN(Cc4ccc5c(c4)CCC5)C3)nc2)cc1 (stereo not drawn)
recorded metric: IC50
reported value: 1.39
--
compound: COc1ccc(-c2cnc(SCC(=O)NCC3CCCN(Cc4ccc(Cl)c(F)c4)C3)nc2)cc1OC (stereo not drawn)
recorded metric: IC50
reported value: 0.973
--
compound: COc1ccc(-c2cnc(SCC(=O)NCC3CCCN(Cc4ccc5cc[nH]c5c4)C3)nc2)cc1OC (stereo not drawn)
recorded metric: IC50
reported value: 0.025
--
compound: COc1ccc(-c2cnc(SCC(=O)NCC3CCCN(Cc4cc(Cl)c(Cl)s4)C3)nc2)cc1OC (stereo not drawn)
recorded metric: IC50
reported value: 0.081
--
compound: COc1ccc(-c2cnc(SCC(=O)NCC3CCCN(Cc4ccc(F)c(F)c4)C3)nc2)cc1 (stereo not drawn)
recorded metric: IC50
reported value: 1.37
--
compound: O=C(CSc1ncc(-c2ccccc2)cn1)NCC1CCCN(Cc2ccc(F)c(F)c2)C1 (stereo not drawn)
recorded metric: IC50
reported value: 2.81
--
compound: COc1ccc(-c2cnc(SCC(=O)NCC3CCCN(Cc4ccc5cc[nH]c5c4)C3)nc2)cc1 (stereo not drawn)
recorded metric: IC50
reported value: 0.731
--
compound: COc1ccc(-c2cnc(CCC(=O)NCC3CCCN(Cc4ccc(Cl)c(Cl)c4)C3)nc2)cc1OC (stereo not drawn) [Compound 9]
recorded metric: IC50
reported value: 0.152

// sample COc1ccc(-c2cnc(CCC(=O)NCC3CCCN(Cc4ccc5c(c4)CCC5)C3)nc2)cc1OC (stereo not drawn) , its IC50 was 0.994

// sample COc1cccc(-c2cnc(OCC(=O)NCC3CCCN(Cc4ccc5c(c4)OCO5)C3)nc2)c1 (stereo not drawn) , its IC50 was 128

// sample COc1ccc(-c2cnc(OCC(=O)NCC3CCCN(Cc4cccc(Cl)c4Cl)C3)nc2)cc1 (stereo not drawn) , its IC50 was 2.11

// sample COc1ccc(-c2cnc(OCC(=O)NCC3CCCN(Cc4cccc(Cl)c4Cl)C3)nc2)cc1OC (stereo not drawn) , its IC50 was 0.507

// sample COc1ccc(-c2cnc(OCC(=O)NCC3CCCN(Cc4ccc5c(c4)OCO5)C3)nc2)cc1OC (stereo not drawn) , its IC50 was 4.64

// sample O=C(CSc1ncc(-c2ccccc2)cn1)NCC1CCCN(Cc2ccc(Cl)c(Cl)c2)C1 (stereo not drawn) , its IC50 was 1.56

// sample COc1cc(-c2cnc(OCC(=O)NCC3CCCN(Cc4ccc(Cl)c(Cl)c4)C3)nc2)cc(OC)c1OC (stereo not drawn) , its IC50 was 21

// sample COc1cc(-c2cnc(CCC(=O)NCC3CCCN(Cc4cccc(Cl)c4Cl)C3)nc2)cc(OC)c1OC (stereo not drawn) , its IC50 was 12
